Biological target: Casein kinase I isoform delta (Homo sapiens, UniProt P48730)
Sequence (P48730 whole entry, canonical isoform): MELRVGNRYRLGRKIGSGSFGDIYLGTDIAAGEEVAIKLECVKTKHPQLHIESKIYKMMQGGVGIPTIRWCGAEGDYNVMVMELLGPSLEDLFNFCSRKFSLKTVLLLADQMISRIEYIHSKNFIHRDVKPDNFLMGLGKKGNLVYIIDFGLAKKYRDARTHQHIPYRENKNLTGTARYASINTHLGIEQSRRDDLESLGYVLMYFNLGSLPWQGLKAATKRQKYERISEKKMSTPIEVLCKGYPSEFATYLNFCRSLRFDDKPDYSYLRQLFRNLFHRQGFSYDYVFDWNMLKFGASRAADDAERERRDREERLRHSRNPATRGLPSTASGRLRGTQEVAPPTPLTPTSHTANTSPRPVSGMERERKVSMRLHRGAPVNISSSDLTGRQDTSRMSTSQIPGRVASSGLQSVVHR
Test: Inhibition of CHKdelta (unknown origin)
pIC50: −log10 of the molar value.
READOUT_TYPE: pIC50

{"columns": ["INPUT_SMILES", "pIC50"],
 "data": [
  ["C[C@@H]1CCN(C(=O)CC#N)C[C@@H]1n1ccc2cnc3[nH]cc(C#N)c3c21", "< 6.00"]
]}

What is its pIC50 for Casein kinase I isoform delta (Homo sapiens, UniProt P48730)? Entry: C[C@@H]1CCN(C(=O)CC#N)C[C@@H]1n1ccc2cnc3[nH]ccc3c21 < 6.00

---

Experiment: AUC (0 to 24 hrs) in Sprague-Dawley rat at 1 mg/kg, po measured up to 24 hrs by LC-MS/MS analysis
Format: ADME, organism-based
Design: dose 1 mg/kg, time < 24 hrs, route po
Conditions: in vivo
# key: entry, value: AUC(0-t) at 24 h
Your answer should be a plain number; it is taken to be in µg·h/mL.

Examples from the recorded data:
{"columns": ["MOLECULE", "RESULT_UNITS", "EXPERIMENTAL_RESULT"],
 "data": [
  ["C[C@@H]1CCN(C(=O)CC#N)C[C@@H]1n1c(=O)[nH]c2cnc3[nH]ccc3c21 (racemic)", "µg·h/mL", 0.0118],
  ["C[C@@H]1CCN(C(=O)CC#N)C[C@@H]1n1ccc2cnc3[nH]cc(C#N)c3c21", "µg·h/mL", 0.916]
]}

Let us examine a further case.
Can you share its AUC(0-t) at 24 h? I mean this molecule: C[C@@H]1CCN(C(=O)CC#N)C[C@@H]1n1ccc2cnc3[nH]ccc3c21 0.917

---

Target: RAC-alpha serine/threonine-protein kinase (Homo sapiens)
Sequence (P31749 whole entry): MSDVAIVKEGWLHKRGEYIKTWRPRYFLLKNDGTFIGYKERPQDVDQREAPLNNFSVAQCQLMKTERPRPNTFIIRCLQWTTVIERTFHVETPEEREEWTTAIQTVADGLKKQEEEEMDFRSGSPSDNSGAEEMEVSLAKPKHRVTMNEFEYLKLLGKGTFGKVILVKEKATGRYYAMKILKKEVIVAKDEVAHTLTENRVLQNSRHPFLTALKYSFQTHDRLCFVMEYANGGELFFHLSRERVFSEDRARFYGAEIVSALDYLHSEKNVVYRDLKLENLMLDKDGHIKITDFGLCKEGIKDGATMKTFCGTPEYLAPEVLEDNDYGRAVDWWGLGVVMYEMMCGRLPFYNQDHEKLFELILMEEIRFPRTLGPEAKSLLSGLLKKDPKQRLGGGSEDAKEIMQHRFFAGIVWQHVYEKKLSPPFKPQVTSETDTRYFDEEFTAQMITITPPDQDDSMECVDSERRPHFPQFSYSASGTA
pIC50: −log10 of the molar value.
READOUT_TYPE: pIC50

What is its pIC50 for RAC-alpha serine/threonine-protein kinase (Homo sapiens)? Entry: C[C@@H]1CCN(C(=O)CC#N)C[C@@H]1n1ccc2cnc3[nH]ccc3c21 < 6.00

---

Target: Angiopoietin-1 receptor (Homo sapiens, UniProt Q02763)
Sequence (Q02763 whole entry): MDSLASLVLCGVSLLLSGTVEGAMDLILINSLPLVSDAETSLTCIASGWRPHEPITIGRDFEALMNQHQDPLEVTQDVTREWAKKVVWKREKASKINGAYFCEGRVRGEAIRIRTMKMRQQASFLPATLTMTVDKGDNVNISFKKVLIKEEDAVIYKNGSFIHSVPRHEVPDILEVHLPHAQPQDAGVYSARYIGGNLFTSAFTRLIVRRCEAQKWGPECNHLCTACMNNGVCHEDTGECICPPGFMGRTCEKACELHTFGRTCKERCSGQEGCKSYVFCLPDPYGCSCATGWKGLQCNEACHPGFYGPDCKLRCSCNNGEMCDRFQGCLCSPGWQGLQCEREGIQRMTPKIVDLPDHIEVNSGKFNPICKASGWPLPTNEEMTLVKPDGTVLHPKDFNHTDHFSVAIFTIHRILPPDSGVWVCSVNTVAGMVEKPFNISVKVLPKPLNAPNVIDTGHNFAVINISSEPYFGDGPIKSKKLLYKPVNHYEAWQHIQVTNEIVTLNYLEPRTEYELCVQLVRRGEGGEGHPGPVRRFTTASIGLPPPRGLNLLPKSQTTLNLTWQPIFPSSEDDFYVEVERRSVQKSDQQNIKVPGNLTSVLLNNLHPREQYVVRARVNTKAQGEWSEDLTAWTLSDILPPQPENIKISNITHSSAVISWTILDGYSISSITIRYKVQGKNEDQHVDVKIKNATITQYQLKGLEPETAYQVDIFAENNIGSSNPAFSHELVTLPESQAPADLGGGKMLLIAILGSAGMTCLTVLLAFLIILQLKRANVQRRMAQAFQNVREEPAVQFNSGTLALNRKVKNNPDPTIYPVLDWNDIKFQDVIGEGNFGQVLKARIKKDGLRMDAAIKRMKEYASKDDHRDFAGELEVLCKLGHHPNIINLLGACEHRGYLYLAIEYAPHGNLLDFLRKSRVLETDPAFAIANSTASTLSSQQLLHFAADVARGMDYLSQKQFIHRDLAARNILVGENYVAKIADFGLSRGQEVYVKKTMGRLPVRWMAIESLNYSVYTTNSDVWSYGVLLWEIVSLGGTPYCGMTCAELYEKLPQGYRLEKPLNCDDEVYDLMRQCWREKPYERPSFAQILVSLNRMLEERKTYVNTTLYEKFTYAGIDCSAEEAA
Assay: Inhibition of TIE2 (unknown origin)
pIC50: −log10 of the molar value.
READOUT_TYPE: pIC50

Can you share its pIC50? I mean this compound: C[C@@H]1CCN(C(=O)CC#N)C[C@@H]1n1ccc2cnc3[nH]ccc3c21 < 6.00

---

Experiment: Tmax in Sprague-Dawley rat at 1 mg/kg, po measured up to 24 hrs by LC-MS/MS analysis
Assay type: ADME, organism-based
Conditions: in vivo
# key: entry, value: Tmax
Your answer should be a plain number; it is taken to be in min.

{"columns": ["COMPOUND", "RESULT_UNITS", "Tmax"],
 "data": [
  ["C[C@@H]1CCN(C(=O)CC#N)C[C@@H]1n1ccc2cnc3[nH]cc(C#N)c3c21", "min", 19.8],
  ["C[C@@H]1CCN(C(=O)CC#N)C[C@@H]1n1c(=O)[nH]c2cnc3[nH]ccc3c21 (racemic)", "min", 15]
]}

Can you share its Tmax? I mean this compound: C[C@@H]1CCN(C(=O)CC#N)C[C@@H]1n1ccc2cnc3[nH]ccc3c21 30

---

pIC50: −log10 of the molar value.
The listing below reports pIC50 for compounds tested on UniProt:P00519.

What is its pIC50 for UniProt:P00519? Entry: C[C@@H]1CCN(C(=O)CC#N)C[C@@H]1n1ccc2cnc3[nH]cc(C#N)c3c21 < 6.00

What is its pIC50 for UniProt:P00519? Entry: C[C@@H]1CCN(C(=O)CC#N)C[C@@H]1n1ccc2cnc3[nH]ccc3c21 < 6.00

---

Target: Insulin-like growth factor 1 receptor (Homo sapiens)
Sequence (P08069 31-736 limits assumed): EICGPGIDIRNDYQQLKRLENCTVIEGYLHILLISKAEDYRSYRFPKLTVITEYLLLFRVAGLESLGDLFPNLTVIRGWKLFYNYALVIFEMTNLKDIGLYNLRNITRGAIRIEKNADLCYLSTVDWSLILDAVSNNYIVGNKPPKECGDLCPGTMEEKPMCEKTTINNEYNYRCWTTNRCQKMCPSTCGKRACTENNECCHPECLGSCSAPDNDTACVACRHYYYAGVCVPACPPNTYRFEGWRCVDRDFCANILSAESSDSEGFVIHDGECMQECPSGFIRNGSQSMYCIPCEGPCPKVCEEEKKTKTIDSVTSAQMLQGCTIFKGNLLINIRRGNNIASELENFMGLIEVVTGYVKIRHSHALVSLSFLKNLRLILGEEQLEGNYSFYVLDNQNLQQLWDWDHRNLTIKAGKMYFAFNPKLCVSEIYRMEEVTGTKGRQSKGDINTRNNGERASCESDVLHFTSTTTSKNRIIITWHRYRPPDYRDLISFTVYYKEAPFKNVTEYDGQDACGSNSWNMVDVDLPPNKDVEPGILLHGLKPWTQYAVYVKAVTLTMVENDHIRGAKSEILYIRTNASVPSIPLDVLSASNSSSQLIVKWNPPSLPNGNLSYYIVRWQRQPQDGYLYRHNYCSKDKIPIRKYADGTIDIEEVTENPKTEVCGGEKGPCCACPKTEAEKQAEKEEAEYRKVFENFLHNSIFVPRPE
Sequence (P08069 741-1367 limits assumed): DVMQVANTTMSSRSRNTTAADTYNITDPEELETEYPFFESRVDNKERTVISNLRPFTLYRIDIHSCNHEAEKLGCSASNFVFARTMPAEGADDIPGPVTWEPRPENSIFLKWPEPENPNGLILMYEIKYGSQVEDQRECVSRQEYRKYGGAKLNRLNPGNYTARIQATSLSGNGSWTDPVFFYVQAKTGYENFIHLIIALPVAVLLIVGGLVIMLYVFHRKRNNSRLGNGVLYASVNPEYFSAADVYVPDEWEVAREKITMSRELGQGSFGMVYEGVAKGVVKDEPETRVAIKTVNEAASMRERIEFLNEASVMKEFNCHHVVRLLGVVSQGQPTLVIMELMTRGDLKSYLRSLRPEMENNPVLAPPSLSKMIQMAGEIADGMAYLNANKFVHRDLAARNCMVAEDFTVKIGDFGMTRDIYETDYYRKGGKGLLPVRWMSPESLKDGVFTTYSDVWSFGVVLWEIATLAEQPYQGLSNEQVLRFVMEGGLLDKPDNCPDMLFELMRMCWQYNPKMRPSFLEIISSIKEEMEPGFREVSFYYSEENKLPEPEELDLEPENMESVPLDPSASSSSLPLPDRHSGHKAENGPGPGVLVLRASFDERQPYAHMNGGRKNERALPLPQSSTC
pIC50: −log10 of the molar value.
READOUT_TYPE: pIC50

Can you share its pIC50? I mean this compound: C[C@@H]1CCN(C(=O)CC#N)C[C@@H]1n1ccc2cnc3[nH]ccc3c21 < 6.00

---

Target: Calcium/calmodulin-dependent protein kinase type II subunit alpha (Homo sapiens, UniProt Q9UQM7)
Test: Inhibition of CAMK2alpha (unknown origin)
READOUT_TYPE: IC50

Can you share its IC50? I mean this molecule: C[C@@H]1CCN(C(=O)CC#N)C[C@@H]1n1ccc2cnc3[nH]ccc3c21 > 1 µM

---

Experiment: in vitro
Conditions: PAMPA, pH 6.5, permeability
Description: Permeability of the compound in pH 6.5 incubated for 2 hrs by PAMPA based HPLC analysis
READOUT_TYPE: Papp at 2 h (×10⁻⁶ cm/s)
Your answer should be a plain number; it is taken to be in ×10⁻⁶ cm/s.

Examples from the recorded data:
{"columns": ["COMPOUND", "RESULT_UNITS", "Papp at 2 h"],
 "data": [
  ["C[C@@H]1CCN(C(=O)N2CCCCC2)C[C@@H]1n1c(=O)[nH]c2cnc3[nH]ccc3c21 (racemic)", "×10⁻⁶ cm/s", 11],
  ["Cc1cc2cnc3[nH]ccc3c2n1[C@H]1CN(C(=O)CC#N)CC[C@H]1C (racemic)", "×10⁻⁶ cm/s", 26],
  ["C[C@@H]1CCN(C(=O)CC#N)C[C@@H]1n1ncc2cnc3[nH]ccc3c21 (racemic)", "×10⁻⁶ cm/s", 5.9],
  ["C[C@@H]1CCN(C(=O)CC#N)C[C@@H]1n1c(=O)n(C)c2cnc3[nH]ccc3c21 (racemic)", "×10⁻⁶ cm/s", 2.5],
  ["C[C@@H]1CCN(C(=O)CC#N)C[C@@H]1n1ccc2cnc3[nH]ccc3c21 (racemic)", "×10⁻⁶ cm/s", 13]
]}

Let us examine a further case.
Can you share its Papp at 2 h? I mean this compound: Cc1c[nH]c2ncc3ccn([C@H]4CN(C(=O)CC#N)CC[C@H]4C)c3c12 (racemic) 23

---

# key: entry, value: clearance
Assay: Clearance in Sprague-Dawley rat at 1 mg/kg, iv measured up to 24 hrs by LC-MS/MS analysis
Assay type: ADME, organism-based
Conditions: in vivo

Can you share its clearance? I mean this compound: C[C@@H]1CCN(C(=O)CC#N)C[C@@H]1n1ccc2cnc3[nH]ccc3c21 18.8 mL/min/kg

Can you share its clearance? I mean this compound: C[C@@H]1CCN(C(=O)CC#N)C[C@@H]1n1ccc2cnc3[nH]cc(C#N)c3c21 20.2 mL/min/kg

Can you share its clearance? I mean this compound: C[C@@H]1CCN(C(=O)CC#N)C[C@@H]1n1c(=O)[nH]c2cnc3[nH]ccc3c21 (racemic) 113 mL/min/kg

---

Target: Mitogen-activated protein kinase 8 (Homo sapiens)
Assay: Inhibition of JNK1 (unknown origin)
READOUT_TYPE: IC50

What is its IC50 for Mitogen-activated protein kinase 8 (Homo sapiens)? Entry: C[C@@H]1CCN(C(=O)CC#N)C[C@@H]1n1ccc2cnc3[nH]ccc3c21 > 1 µM

---

Target: High affinity nerve growth factor receptor (Homo sapiens, UniProt P04629)
Sequence (P04629 whole entry): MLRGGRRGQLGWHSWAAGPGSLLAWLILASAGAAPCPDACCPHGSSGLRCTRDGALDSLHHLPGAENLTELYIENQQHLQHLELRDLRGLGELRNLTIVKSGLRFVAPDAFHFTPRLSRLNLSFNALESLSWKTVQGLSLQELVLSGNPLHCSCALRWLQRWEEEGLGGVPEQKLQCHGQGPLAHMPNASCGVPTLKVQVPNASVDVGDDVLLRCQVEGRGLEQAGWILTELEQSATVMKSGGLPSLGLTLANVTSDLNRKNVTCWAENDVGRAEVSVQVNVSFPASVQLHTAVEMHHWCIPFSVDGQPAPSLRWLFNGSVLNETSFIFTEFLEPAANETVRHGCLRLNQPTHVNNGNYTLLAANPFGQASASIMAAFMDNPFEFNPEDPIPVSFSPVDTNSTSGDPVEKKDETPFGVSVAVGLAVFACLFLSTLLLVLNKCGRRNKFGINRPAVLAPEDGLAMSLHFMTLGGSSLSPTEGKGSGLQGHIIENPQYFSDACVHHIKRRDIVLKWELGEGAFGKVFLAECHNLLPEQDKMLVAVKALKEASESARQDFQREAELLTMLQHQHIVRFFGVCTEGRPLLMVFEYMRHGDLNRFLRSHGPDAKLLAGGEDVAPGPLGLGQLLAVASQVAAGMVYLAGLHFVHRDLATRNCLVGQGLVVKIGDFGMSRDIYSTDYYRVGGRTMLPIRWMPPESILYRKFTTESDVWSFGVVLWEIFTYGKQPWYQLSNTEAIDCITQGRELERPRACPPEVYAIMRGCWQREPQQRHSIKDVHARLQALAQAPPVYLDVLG
READOUT_TYPE: IC50

What is its IC50 for High affinity nerve growth factor receptor (Homo sapiens, UniProt P04629)? Entry: C[C@@H]1CCN(C(=O)CC#N)C[C@@H]1n1ccc2cnc3[nH]ccc3c21 > 1 µM

---

Target: CYP3A4 (Homo sapiens, UniProt P08684)
Sequence (P08684 whole entry): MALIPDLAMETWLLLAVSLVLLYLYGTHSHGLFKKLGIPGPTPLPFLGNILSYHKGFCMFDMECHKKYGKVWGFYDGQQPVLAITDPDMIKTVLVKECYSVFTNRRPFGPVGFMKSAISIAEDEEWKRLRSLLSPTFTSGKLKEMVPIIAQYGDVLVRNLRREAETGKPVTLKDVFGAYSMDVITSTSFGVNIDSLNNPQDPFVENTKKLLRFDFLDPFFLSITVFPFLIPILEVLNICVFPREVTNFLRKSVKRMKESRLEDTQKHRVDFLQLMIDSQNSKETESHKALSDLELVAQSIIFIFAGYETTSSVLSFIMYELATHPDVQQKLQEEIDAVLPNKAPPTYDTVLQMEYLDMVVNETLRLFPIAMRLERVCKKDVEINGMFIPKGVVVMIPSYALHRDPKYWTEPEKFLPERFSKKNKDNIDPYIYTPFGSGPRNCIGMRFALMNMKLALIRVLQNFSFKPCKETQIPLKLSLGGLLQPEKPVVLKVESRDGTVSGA
Assay: in vitro
Settings: liver microsomes, probe midazolam, TDI
# key: entry, value: inhibition at 20 min, 5 µM
Your answer should be a plain number; it is taken to be in %.

{"columns": ["COMPOUND", "STUDY_TARGET", "READOUT_TYPE", "RESULT_UNITS", "EXPERIMENTAL_RESULT"],
 "data": [
  ["C[C@@H]1CCN(C(=O)N2CCOCC2)C[C@@H]1n1c(=O)[nH]c2cnc3[nH]ccc3c21 (racemic)", "CYP3A4 (Homo sapiens, UniProt P08684)", "inhibition at 20 min, 5 µM", "%", 61],
  ["Cc1cc2cnc3[nH]ccc3c2n1[C@H]1CN(C(=O)CC#N)CC[C@H]1C (racemic)", "CYP3A4 (Homo sapiens, UniProt P08684)", "inhibition at 20 min, 5 µM", "%", 44],
  ["C[C@@H]1CCN(C(=O)C(C)(C)C#N)C[C@@H]1n1c(=O)[nH]c2cnc3[nH]ccc3c21 (racemic)", "CYP3A4 (Homo sapiens, UniProt P08684)", "inhibition at 20 min, 5 µM", "%", 18],
  ["C[C@@H]1CCN(C(=O)CC#N)C[C@@H]1n1ccc2cnc3[nH]cc(C#N)c3c21 (racemic)", "CYP3A4 (Homo sapiens, UniProt P08684)", "inhibition at 20 min, 5 µM", "%", 90],
  ["Cc1c[nH]c2ncc3ccn([C@H]4CN(C(=O)CC#N)CC[C@H]4C)c3c12 (racemic)", "CYP3A4 (Homo sapiens, UniProt P08684)", "inhibition at 20 min, 5 µM", "%", 62]
]}

Can you share its inhibition at 20 min, 5 µM? I mean this compound: C[C@@H]1CCN(C(=O)Cn2cnnn2)C[C@@H]1n1c(=O)[nH]c2cnc3[nH]ccc3c21 (racemic) 88

Can you share its inhibition at 20 min, 5 µM? I mean this compound: C[C@@H]1CCN(C(=O)CC#N)C[C@@H]1n1cc(C#N)c2cnc3[nH]ccc3c21 (racemic) 91

Can you share its inhibition at 20 min, 5 µM? I mean this compound: C[C@@H]1CCN(C(=O)CC#N)C[C@@H]1n1ccc2cnc3[nH]ccc3c21 (racemic) 90
